Target: T1, rhesus CD11a (rhesus, UniProt H9Z8N3 26-1169)
T1 construct: whole, on cells; On rhesus peripheral blood lymphocytes or leukocytes; also called rhCD11a
T1 sequence: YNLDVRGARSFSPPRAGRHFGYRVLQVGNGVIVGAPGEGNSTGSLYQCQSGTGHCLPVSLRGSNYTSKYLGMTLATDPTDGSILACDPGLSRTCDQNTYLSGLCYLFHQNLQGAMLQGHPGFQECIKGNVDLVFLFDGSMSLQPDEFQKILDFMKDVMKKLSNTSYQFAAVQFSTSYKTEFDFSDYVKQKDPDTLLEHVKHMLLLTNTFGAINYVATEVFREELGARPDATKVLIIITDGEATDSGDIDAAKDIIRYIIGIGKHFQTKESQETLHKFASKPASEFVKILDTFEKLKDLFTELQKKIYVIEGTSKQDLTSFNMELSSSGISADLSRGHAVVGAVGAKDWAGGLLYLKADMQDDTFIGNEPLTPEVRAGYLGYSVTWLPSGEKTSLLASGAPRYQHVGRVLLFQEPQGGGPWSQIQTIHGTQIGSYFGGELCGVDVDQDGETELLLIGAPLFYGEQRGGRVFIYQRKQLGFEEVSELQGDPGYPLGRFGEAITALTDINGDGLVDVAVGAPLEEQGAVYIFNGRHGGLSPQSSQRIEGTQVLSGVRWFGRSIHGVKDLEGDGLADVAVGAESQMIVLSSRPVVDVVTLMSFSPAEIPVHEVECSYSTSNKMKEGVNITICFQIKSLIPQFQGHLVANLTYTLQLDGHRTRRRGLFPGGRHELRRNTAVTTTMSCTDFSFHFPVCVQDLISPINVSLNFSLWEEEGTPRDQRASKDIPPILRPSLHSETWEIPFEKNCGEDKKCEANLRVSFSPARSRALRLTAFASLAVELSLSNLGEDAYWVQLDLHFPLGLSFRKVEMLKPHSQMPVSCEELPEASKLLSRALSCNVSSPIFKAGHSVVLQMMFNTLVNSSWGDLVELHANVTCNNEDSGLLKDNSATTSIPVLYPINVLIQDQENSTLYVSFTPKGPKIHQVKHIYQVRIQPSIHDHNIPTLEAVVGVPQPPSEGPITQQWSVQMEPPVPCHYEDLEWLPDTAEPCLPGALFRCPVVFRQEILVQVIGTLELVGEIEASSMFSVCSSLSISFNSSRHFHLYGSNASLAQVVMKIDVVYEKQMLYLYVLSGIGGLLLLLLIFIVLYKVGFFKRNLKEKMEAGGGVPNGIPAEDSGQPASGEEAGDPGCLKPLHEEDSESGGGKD
Assay: rhesus PBL binding
propertyMeasured: Mutant EC50/HuIgG1 EC50 (ratio)
Give bare numbers, in ratio.

Check out these entries, answers already filled in.
| binder | dataValue |
| --- | --- |
| HuIgG1 mutant AspH54Ser (antibody, V domains shown, HuIgG1 mutant, human IgG1; Kabat numbering; also called AspH54 change to Ser) VH: EVQLVESGGGLVQPGGSLRLSCAASGYSFTGHWMNWVRQAPGKGLEWVGMIHPSSSETRYNQKFKDRFTISVDKSKNTLYLQMNSLRAEDTAVYYCARGIYFYGTTYFDYWGQGTLVTVSS VL: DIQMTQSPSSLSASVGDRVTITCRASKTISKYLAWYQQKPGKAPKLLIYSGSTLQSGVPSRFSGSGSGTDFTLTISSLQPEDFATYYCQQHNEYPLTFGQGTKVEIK | 0.9 |
| HuIgG1 mutant AspH54Ala (antibody, V domains shown, HuIgG1 mutant, human IgG1; Kabat numbering) VH: EVQLVESGGGLVQPGGSLRLSCAASGYSFTGHWMNWVRQAPGKGLEWVGMIHPSASETRYNQKFKDRFTISVDKSKNTLYLQMNSLRAEDTAVYYCARGIYFYGTTYFDYWGQGTLVTVSS VL: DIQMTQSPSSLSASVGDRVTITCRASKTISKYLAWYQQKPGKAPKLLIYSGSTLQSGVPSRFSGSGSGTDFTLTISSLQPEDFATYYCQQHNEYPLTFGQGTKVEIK | 0.3 |
| HuIgG1 mutant AspH54Gln (antibody, V domains shown, HuIgG1 mutant, human IgG1; Kabat numbering; also called AspH54 change to Gln) VH: EVQLVESGGGLVQPGGSLRLSCAASGYSFTGHWMNWVRQAPGKGLEWVGMIHPSQSETRYNQKFKDRFTISVDKSKNTLYLQMNSLRAEDTAVYYCARGIYFYGTTYFDYWGQGTLVTVSS VL: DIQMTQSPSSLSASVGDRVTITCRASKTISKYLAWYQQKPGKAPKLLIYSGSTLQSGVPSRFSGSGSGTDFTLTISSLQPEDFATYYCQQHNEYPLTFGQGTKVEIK | 4.4 |

Consider the record given below.
# Mutant EC50/HuIgG1 EC50 of HuIgG1 mutant AspH54Asn (antibody, V domains shown, HuIgG1 mutant, human IgG1; Kabat numbering) VH: EVQLVESGGGLVQPGGSLRLSCAASGYSFTGHWMNWVRQAPGKGLEWVGMIHPSNSETRYNQKFKDRFTISVDKSKNTLYLQMNSLRAEDTAVYYCARGIYFYGTTYFDYWGQGTLVTVSS VL: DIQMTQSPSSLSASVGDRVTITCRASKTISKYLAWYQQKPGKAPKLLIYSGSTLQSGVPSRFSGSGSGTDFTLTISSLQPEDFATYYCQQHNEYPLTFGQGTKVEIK = 0.1

Data provenance: patent US20040146507A1
